system: adjuvant-induced arthritis rat; assay: Inhibitory effect on hindlimb weight distribution in adjuvant-induced arthritis rat; assay type: in vivo; conditions: at the dose shown in Table 4; P<0.05
Structures can show the parent of a compound that is named as a salt.

- compound: "O=C(O)c1cc(-c2c(F)sc3cc(Cl)ccc23)ccc1N1CCO[C@H](CNC2CCC2)C1 [Ex11, hydrochloride]"
  significance versus solvent group: "significant activity"
- compound: "Cc1sc2cc(Cl)c(F)cc2c1-c1ccc(N2CCO[C@H](CNC3CCC3)C2)c(C(=O)O)c1 [Ex18, hydrochloride]"
  significance versus solvent group: "significant activity"
- compound: "Cc1sc2cc(Cl)ccc2c1-c1ccc(N2CCO[C@H](CNC3CCC3)C2)c(C(=O)O)c1 [Ex10, monohydrochloride]"
  significance versus solvent group: "significant activity"
- compound: "CC(C)(C)NC[C@H]1CCCN(c2ccc(-c3csc4cc(C(F)(F)F)ccc34)cc2C(=O)O)C1 [Ex14, hydrochloride]"
  significance versus solvent group: "significant activity"

---

Test system: monoiodoacetate-induced osteoarthritis model
Assay: Inhibitory effect on hindlimb weight distribution in monoiodoacetate-induced osteoarthritis model
Format: in vivo, rat
Details: male SD rats, 1 mg/kg oral, 3 weeks after MIA, 1 or 2 hours after administration
Protocol: Moreover, in Test Examples 2 to 6, a 0.5% methyl cellulose suspension was used as a test drug. This model is a model of osteoarthritis, and action to osteoarthritis pain can be evaluated using the model. […] After 1 or 2 hours, the weight distribution between the left and the right hindlimb was measured using an Incapacitance Tester (manufactured by Linton Instrumentation). […] With P<0.05 in each assay, it was determined that there was a significant difference. […]
Counter-ions that a name gives are not always drawn.
Recorded Improvement rate values for a group of molecules are listed next.

- molecule: "O=C(O)c1cc(-c2c(F)sc3cc(Cl)ccc23)ccc1N1CCO[C@H](CNC2CCC2)C1 [Ex11, hydrochloride]"
  Improvement rate: ">50% (l mg/kg)"
- molecule: "Cc1sc2cc(Cl)ccc2c1-c1ccc(N2CCO[C@H](CNC3CCC3)C2)c(C(=O)O)c1 [Ex10, monohydrochloride]"
  Improvement rate: ">50% (l mg/kg)"
- molecule: "Cc1sc2cc(Cl)c(F)cc2c1-c1ccc(N2CCO[C@H](CNC3CCC3)C2)c(C(=O)O)c1 [Ex18, hydrochloride]"
  Improvement rate: ">50% (1 mg/kg)"
- molecule: "CC(C)(C)NC[C@H]1CCCN(c2ccc(-c3csc4cc(C(F)(F)F)ccc34)cc2C(=O)O)C1 [Ex14, hydrochloride]"
  Improvement rate: "42% (1 mg/kg)"

---

Recorded pEC50 values for a group of molecules are listed next.
molecular target: IK1 channel (Homo sapiens); experiment: IK1 channel opening activity measurement test (membrane potential, human IK1 channel expressing CHO dhfr- cells); assay type: cell-based; set-up: expressed in transfected cells; host or cells: CHO dhfr- cells; conditions: NS-309 0.2 μM = 100%, DMSO = 0%, read-out: EC50 of IK1 channel opening action
pEC50: −log10 of the molar value. Counter-ions that a name gives are not always drawn.

- molecule: "Cc1sc2cc(Cl)c(F)cc2c1-c1ccc(N2CCO[C@H](CNC3CCC3)C2)c(C(=O)O)c1 [Ex18, hydrochloride]"
  pEC50: 7.32
- molecule: "Cc1sc2cc(Cl)ccc2c1-c1ccc(N2CCO[C@H](CNC3CCC3)C2)c(C(=O)O)c1 [Ex10, monohydrochloride]"
  pEC50: 7.03
- molecule: "Cc1sc2cc(F)ccc2c1-c1ccc(N2CCO[C@H](CNC3CCC3)C2)c(C(=O)O)c1"
  pEC50: 7.28
- molecule: "O=C(O)c1cc(-c2csc3cc(C(F)(F)F)ccc23)ccc1N1CCO[C@H](CNC2CCC2)C1"
  pEC50: 7.62
- molecule: "Cc1sc2cc(Cl)c(F)cc2c1-c1ccc(N2CCO[C@H](CNC(C)(C)C)C2)c(C(=O)O)c1"
  pEC50: 8.26
- molecule: "O=C(O)c1cc(-c2c(F)sc3cc(Cl)ccc23)ccc1N1CCO[C@H](CNC2CCC2)C1 [Ex11, hydrochloride]"
  pEC50: 7.96
- molecule: "Cc1sc2cc(Cl)ccc2c1-c1ccc(N2CCO[C@H](CNC(C)(C)C)C2)c(C(=O)O)c1"
  pEC50: 7.48
- molecule: "CC(C)(C)NC[C@H]1CCCN(c2ccc(-c3csc4cc(C(F)(F)F)ccc34)cc2C(=O)O)C1 [Ex14, hydrochloride]"
  pEC50: 7.55

---

target: IK1 channel (Homo sapiens, UniProt O15554); assay: IK1 channel opening activity measurement test (membrane potential, T84 cells); assay type: cell-based; set-up: T84 cells (which is known as IK1 channel expressing cells); endogenous in cells; host or cells: T84 cells; conditions: NS-309 0.2 μM = 100%, DMSO = 0%, read-out: EC50 of IK1 channel opening action
Structures can show the parent of a compound that is named as a salt.
Recorded EC50 values for a group of compounds are listed next.

- compound: "O=C(O)c1cc(-c2csc3cc(C(F)(F)F)ccc23)ccc1N1CCO[C@H](CNC2CCC2)C1"
  EC50: "1.75 µM"
- compound: "CC(C)(C)NC[C@H]1CCCN(c2ccc(-c3csc4cc(C(F)(F)F)ccc34)cc2C(=O)O)C1 [Ex14, hydrochloride]"
  EC50: "3.17 µM"
- compound: "Cc1sc2cc(Cl)c(F)cc2c1-c1ccc(N2CCO[C@H](CNC(C)(C)C)C2)c(C(=O)O)c1"
  EC50: "1.5 µM"
- compound: "Cc1sc2cc(Cl)c(F)cc2c1-c1ccc(N2CCO[C@H](CNC3CCC3)C2)c(C(=O)O)c1 [Ex18, hydrochloride]"
  EC50: "0.92 µM"
- compound: "Cc1sc2cc(Cl)ccc2c1-c1ccc(N2CCO[C@H](CNC3CCC3)C2)c(C(=O)O)c1 [Ex10, monohydrochloride]"
  EC50: "3.89 µM"
- compound: "O=C(O)c1cc(-c2c(F)sc3cc(Cl)ccc23)ccc1N1CCO[C@H](CNC2CCC2)C1 [Ex11, hydrochloride]"
  EC50: "3.07 µM"
- compound: "Cc1sc2cc(F)ccc2c1-c1ccc(N2CCO[C@H](CNC3CCC3)C2)c(C(=O)O)c1"
  EC50: "3.76 µM"
- compound: "Cc1sc2cc(Cl)ccc2c1-c1ccc(N2CCO[C@H](CNC(C)(C)C)C2)c(C(=O)O)c1"
  EC50: "8.04 µM"
